# AC50 annotations
target: PKR G364D (Homo sapiens, UniProt P30613, G364D); test: PKR Mutant Assay (AC50), PKR G364D; assay type: biochemical

compound | AC50
Cn1c2cc([S+](C)[O-])sc2c2cnn(Cc3cccc(O)c3)c(=O)c21 (stereo not shown) | < 100 nM
COc1cccc(Cn2ncc3c4sc([S+](C)[O-])cc4n(C)c3c2=O)c1 (stereo not shown) | < 100 nM
Cn1c2cc([S+](C)[O-])sc2c2cnn(Cc3ccccc3F)c(=O)c21 (stereo not shown) | 101 to 500 nM

Now for the compound whose AC50 we want.
Query block: For the compound CSc1cc2c(s1)c1cnn(Cc3cccc(O)c3)c(=O)c1n2C , give its measured AC50 value.
Result block: < 100 nM

====

Target: PKR wt (Homo sapiens, UniProt P30613)
Sequence (P30613 whole entry): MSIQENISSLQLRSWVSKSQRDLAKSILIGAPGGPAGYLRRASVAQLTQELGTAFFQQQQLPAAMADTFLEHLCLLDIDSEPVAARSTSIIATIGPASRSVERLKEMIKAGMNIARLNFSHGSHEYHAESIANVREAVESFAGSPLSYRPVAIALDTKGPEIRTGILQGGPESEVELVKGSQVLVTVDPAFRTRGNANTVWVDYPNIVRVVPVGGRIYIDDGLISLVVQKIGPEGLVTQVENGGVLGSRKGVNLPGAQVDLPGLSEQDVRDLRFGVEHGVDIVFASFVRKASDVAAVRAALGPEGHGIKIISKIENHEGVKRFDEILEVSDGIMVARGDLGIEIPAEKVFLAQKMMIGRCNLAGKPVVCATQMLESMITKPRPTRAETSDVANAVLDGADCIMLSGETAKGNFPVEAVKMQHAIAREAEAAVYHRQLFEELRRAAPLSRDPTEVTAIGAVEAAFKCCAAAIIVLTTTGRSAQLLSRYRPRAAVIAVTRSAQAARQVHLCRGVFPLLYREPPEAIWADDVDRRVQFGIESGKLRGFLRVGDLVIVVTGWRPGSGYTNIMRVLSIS
Assay: PKR WT Single Point Percent Activation Assay
Assay type: biochemical
Conditions: compound at 1 μM
Protocol: PKR WT Single Point Percent Activation Assay A compound described herein was diluted with DMSO and tested at 1 μM concentration. The enzyme was diluted in 1× Buffer: (100 mM KCl, 50 mM Tris 7.5, 5 mM MgCl2, 1 mM DTT, 0.03% BSA). 2 μL of compound solution was first added into wells, and then 180 μL of enzyme solution was added. […] 20 μL ADP was added to start the assay and assay output was evaluated using OD340 at SpectraMax. […]
# activation at 1 µM annotations

Example entries begin here.
compound | system tested | data value
Cn1c2cc([S+](C)[O-])sc2c2cnn(Cc3cccc(O)c3)c(=O)c21 (stereo not drawn) | PKR wt (Homo sapiens, UniProt P30613) | 101 to 500%
Nc1cccc(S(=O)(=O)N2CCN(S(=O)(=O)c3ccc4c(c3)OCCO4)CC2)c1 | PKR wt (Homo sapiens, UniProt P30613) | 1 to 100%

Now for the compound whose activation at 1 µM we want.
Query block: For the compound CSc1cc2c(s1)c1cnn(Cc3cccc(O)c3)c(=O)c1n2C , give its measured activation at 1 µM value.
Result block: 101 to 500%

====

target: PKR R510Q (Homo sapiens, UniProt P30613, R510Q); experiment: PKR R510Q Single Point Percent Activation Assay; type: biochemical; details: compound at 1 μM; read-out: % Act. R510Q
Sequence (P30613 whole entry R510Q): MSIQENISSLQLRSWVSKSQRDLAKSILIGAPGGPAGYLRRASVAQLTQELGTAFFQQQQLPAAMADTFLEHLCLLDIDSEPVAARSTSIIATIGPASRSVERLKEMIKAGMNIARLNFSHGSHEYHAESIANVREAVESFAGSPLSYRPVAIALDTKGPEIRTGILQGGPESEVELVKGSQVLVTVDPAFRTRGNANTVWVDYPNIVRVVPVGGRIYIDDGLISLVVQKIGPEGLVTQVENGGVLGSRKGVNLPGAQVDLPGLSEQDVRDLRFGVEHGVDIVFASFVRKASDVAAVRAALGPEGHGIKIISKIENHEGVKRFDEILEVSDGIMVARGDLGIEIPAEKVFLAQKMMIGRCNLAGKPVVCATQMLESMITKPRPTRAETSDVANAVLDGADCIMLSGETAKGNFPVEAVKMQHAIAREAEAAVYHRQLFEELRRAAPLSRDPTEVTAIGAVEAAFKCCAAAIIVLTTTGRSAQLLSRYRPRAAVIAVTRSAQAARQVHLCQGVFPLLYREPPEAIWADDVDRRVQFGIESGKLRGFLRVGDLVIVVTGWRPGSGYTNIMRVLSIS
# activation at 1 µM annotations

Example entries begin here.
compound | attribute measured | data value
COc1cc(F)c(S(=O)(=O)N2CCCN(S(=O)(=O)c3cccc(N)c3)CC2)c(F)c1 | activation at 1 µM | 101 to 500%
O=S(=O)(c1ccc2c(c1)OCCO2)N1CCCN(S(=O)(=O)c2c(F)cccc2F)CC1 | activation at 1 µM | 101 to 500%
CSc1cc2c(s1)c1cnn(Cc3cccc(O)c3)c(=O)c1n2C | activation at 1 µM | > 500%

Query block: // fetch activation at 1 µM; item: Nc1cccc(S(=O)(=O)N2CCCN(S(=O)(=O)c3ccc4c(c3)OCCO4)CC2)c1 [drawing 23] ; system: PKR R510Q (Homo sapiens, UniProt P30613, R510Q)
Result block: 101 to 500%

Query block: // fetch activation at 1 µM; item: COc1cccc(Cn2ncc3c4sc([S+](C)[O-])cc4n(C)c3c2=O)c1 (stereo not drawn) ; system: PKR R510Q (Homo sapiens, UniProt P30613, R510Q)
Result block: 101 to 500%

Query block: // fetch activation at 1 µM; item: Cn1c2cc([S+](C)[O-])sc2c2cnn(Cc3ccccc3F)c(=O)c21 (stereo not drawn) ; system: PKR R510Q (Homo sapiens, UniProt P30613, R510Q)
Result block: 101 to 500%

Query block: // fetch activation at 1 µM; item: Nc1cccc(S(=O)(=O)N2CCN(S(=O)(=O)c3c(F)cccc3F)CC2)c1 ; system: PKR R510Q (Homo sapiens, UniProt P30613, R510Q)
Result block: 101 to 500%

Query block: // fetch activation at 1 µM; item: CCCCCn1ncc2c3sc(C)cc3n(C)c2c1=O ; system: PKR R510Q (Homo sapiens, UniProt P30613, R510Q)
Result block: 101 to 500%

Query block: // fetch activation at 1 µM; item: O=S(=O)(c1ccc2c(c1)OCCO2)N1CCN(S(=O)(=O)c2c(F)cccc2F)CC1 ; system: PKR R510Q (Homo sapiens, UniProt P30613, R510Q)
Result block: 101 to 500%

Query block: // fetch activation at 1 µM; item: COc1cc(F)c(S(=O)(=O)N2CCN(S(=O)(=O)c3cccc(N)c3)CC2)c(F)c1 ; system: PKR R510Q (Homo sapiens, UniProt P30613, R510Q)
Result block: 101 to 500%

Query block: // fetch activation at 1 µM; item: Cn1c2cc([S+](C)[O-])sc2c2cnn(Cc3cccc(O)c3)c(=O)c21 (stereo not drawn) ; system: PKR R510Q (Homo sapiens, UniProt P30613, R510Q)
Result block: 101 to 500%

Query block: // fetch activation at 1 µM; item: Nc1cccc(S(=O)(=O)N2CCN(S(=O)(=O)c3ccc4c(c3)OCCO4)CC2)c1 ; system: PKR R510Q (Homo sapiens, UniProt P30613, R510Q)
Result block: 1 to 100%
